B1: glmS ribozyme (parent)
chain: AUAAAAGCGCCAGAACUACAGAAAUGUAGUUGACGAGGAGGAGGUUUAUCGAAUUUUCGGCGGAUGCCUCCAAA

- Variants of: B1
- test protocol: self-cleavage kobs at 10000 uM GlcN6P; higher = faster cleavage; RNA array
- experimental context: with glucosamine-6-phosphate
This sample holds only a part of the variants without activity.
quantity name: self-cleavage kobs at 10000 uM GlcN6P (s⁻¹)
Report as a plain number; the unit s⁻¹ is understood.

Query string: What value of self-cleavage kobs at 10000 uM GlcN6P has been recorded for this entry: "AUAAAAGCGCCAGAACUACAGAAAUGUAGUUGACGAGGAGGAGGUUUAUCGAAUUUUCGGCGGAGGGCUCCAAA"
Result string: 0.00122

Query string: Any idea what its self-cleavage kobs at 10000 uM GlcN6P is? The variant is "AUAAAAGCGCCACAACUACAGAAAUGUACUUGACGAGGAGGAGGUUUAUCGAAUUUUCGGCGGAUGCCUCCAAA"
Result string: 9.98e-05

Query string: May I ask what self-cleavage kobs at 10000 uM GlcN6P has been recorded for "AUAAAAGCGCCAGAACUACAGAAAUGUAGUUGACGAGGAGGGGGUUUAUCGAAUCUUCGACGGAUGCCUCCAAA" ?
Result string: 4.43e-05

Query string: Suppose we examine the variant "AUAAAAGCGCCAGAACUACAGAAAUGUAGUUGACGAGGAGGAGGUUUAGCGAGUUUUCGGCGGGUGACUCCAAA" ; what self-cleavage kobs at 10000 uM GlcN6P value has been reported?
Result string: 0.000669

Query string: Looking for the measured self-cleavage kobs at 10000 uM GlcN6P of "AUAAAAGCGCCAGAACUACAGAAAUGUAGCUGACGAGGAGGAGGUUUAUCGAAUUGUCGGCGGAUGCCUCCAAA" , can you help?
Result string: 0.000296

Query string: Return reported self-cleavage kobs at 10000 uM GlcN6P; argument: "AUAAAAGCGCCAGAACUACAGAAAUGUAGUUGACGAGGGGGAGGUUUAUCGAUUUUUCGGCGGAUGCCUCCAAA"
Result string: 0.0229

Query string: What measured self-cleavage kobs at 10000 uM GlcN6P goes with "AUAAAAGCGCCAGAACUACAGAAAUGUAGUUGACGAGGAGGAGAUUUAUCGAUUUUUCGGCGGAUGCCUCCAAA" ?
Result string: 0.000182

Query string: Endpoint output: self-cleavage kobs at 10000 uM GlcN6P of "AUAAAUGCGCCGGAAUUACAGAAAUGUAGUUGACGAGAAGGAGGUUUAUCGAAAUUUCGGCGGAUGCAUCCAAA" . Value?
Result string: 8.53e-05

Query string: So what's the measured self-cleavage kobs at 10000 uM GlcN6P for this one? "AUAAAAGCGCCAGAACUACAGAAAUGUAGUUGACGAGGAGGAGGUUUAUCGAAUUUUCGGCGGAUGCCAACAAA"
Result string: 3.27e-05

Query string: What value of self-cleavage kobs at 10000 uM GlcN6P has been reported for the following variant? "AUAAAAGCGCCAGAACUACAGAAAUGUAGUUGACGAGGAGGAGGUUUAUGGAACUUUCGGCGGAUGCCUCUAAA"
Result string: 4.14e-05

Query string: Please look up its self-cleavage kobs at 10000 uM GlcN6P: "AUAAAAGCGCUAGAACUACAGAAAUGUAGUUGACGAGGAGGAGGUUUAUCGAAUUUUCGGCGGAAGCCUCUAAA"
Result string: 0.000139

Query string: // lookup self-cleavage kobs at 10000 uM GlcN6P for "AUAAAAGCGACAGAACUACAGAAAUGUAGUUGACGAGGAGGAGGUUUAUCGAAUUUUCUGCGGAUGCCUCCAAA"
Result string: 7.46e-05
